- Assay system: human pancreatic lipase (hPL) (Homo sapiens, UniProt P16233)
- Construct: gene PNLIP
- Sequence (P16233 17-465): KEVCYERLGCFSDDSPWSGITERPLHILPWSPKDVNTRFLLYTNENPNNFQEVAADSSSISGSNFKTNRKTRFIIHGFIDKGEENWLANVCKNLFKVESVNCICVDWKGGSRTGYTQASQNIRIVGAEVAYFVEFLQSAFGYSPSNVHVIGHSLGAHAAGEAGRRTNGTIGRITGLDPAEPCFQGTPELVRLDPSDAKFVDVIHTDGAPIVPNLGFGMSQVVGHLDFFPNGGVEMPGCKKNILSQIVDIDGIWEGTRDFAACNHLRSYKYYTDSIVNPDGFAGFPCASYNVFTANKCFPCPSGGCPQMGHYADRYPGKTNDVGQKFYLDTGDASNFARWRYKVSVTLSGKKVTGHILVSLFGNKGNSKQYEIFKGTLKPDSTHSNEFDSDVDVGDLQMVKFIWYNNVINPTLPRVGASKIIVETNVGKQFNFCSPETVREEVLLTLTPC
- Cond: 10 µM; inhibitor
Quantity: % of control remaining (%)
Just the number in %, nothing appended.

## Input # get_value(readout= % of control remaining, system= human pancreatic lipase (hPL) (Homo sapiens, UniProt P16233)) for COC(=O)C[C@](O)(CCCC(C)(C)O)C(=O)O[C@@H]1C(OC)=C[C@]23CCCN2CCc2cc4c(cc2[C@H]13)OCO4 [Homoharringtonine]
## Output 74.77

## Input Recorded % of control remaining for Nc1nnc(-c2cccc(Cl)c2Cl)c(N)n1 [Lamotrigine] with human pancreatic lipase (hPL) (Homo sapiens, UniProt P16233), please?
## Output 84.88

## Input Request: % of control remaining, test system human pancreatic lipase (hPL) (Homo sapiens, UniProt P16233), entry O=C(O)c1cc(-c2ccc(F)cc2F)ccc1O [Diflunisal]
## Output 118.03

## Input Item COc1ccc(-c2coc3cc(O)cc(O)c3c2=O)cc1 [5,7-Dihydrox-4'-methoxyisoflavone] with human pancreatic lipase (hPL) (Homo sapiens, UniProt P16233) - % of control remaining?
## Output 100.90
